Source of measurements: ChEMBL document CHEMBL1141396

Target: Mitogen-activated protein kinase kinase kinase 9 (Homo sapiens)
Sequence (P80192 whole entry): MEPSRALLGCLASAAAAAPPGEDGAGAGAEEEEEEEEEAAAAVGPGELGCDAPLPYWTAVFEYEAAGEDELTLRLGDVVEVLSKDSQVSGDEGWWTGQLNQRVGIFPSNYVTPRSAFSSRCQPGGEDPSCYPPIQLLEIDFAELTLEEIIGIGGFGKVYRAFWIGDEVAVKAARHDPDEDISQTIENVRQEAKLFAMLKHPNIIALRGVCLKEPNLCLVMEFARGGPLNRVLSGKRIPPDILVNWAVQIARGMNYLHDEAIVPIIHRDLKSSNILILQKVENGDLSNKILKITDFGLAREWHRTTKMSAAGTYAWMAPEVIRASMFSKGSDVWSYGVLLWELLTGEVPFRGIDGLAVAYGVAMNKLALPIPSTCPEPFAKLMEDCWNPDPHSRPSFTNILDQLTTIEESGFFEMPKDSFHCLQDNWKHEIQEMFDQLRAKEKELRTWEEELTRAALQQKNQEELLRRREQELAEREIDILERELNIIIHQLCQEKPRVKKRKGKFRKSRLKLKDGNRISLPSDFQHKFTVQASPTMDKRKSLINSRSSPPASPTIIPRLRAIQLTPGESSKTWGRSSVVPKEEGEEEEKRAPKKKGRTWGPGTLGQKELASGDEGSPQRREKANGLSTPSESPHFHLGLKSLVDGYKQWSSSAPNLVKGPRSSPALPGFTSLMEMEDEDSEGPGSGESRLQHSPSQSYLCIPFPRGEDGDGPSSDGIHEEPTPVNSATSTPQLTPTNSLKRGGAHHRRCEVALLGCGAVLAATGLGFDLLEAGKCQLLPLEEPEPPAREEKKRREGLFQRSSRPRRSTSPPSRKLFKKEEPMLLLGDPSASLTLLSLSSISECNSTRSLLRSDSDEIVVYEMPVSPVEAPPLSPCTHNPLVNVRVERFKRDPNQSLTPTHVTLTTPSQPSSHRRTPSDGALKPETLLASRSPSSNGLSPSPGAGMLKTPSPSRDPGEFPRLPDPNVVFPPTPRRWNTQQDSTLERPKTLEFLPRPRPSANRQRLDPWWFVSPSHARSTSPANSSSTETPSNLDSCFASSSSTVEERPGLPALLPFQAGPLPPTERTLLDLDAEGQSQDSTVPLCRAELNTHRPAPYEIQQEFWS
Test: Inhibition of GST-MLK1 expressed in baculovirus
pIC50: −log10 of the molar value.
measurement_type: pIC50

Record O=C1NCc2c1c1c3ccccc3sc1c1sc3ccccc3c21 ; system Mitogen-activated protein kinase kinase kinase 9 (Homo sapiens); pIC50 = < 5.00

Sample O=C1NC(=O)c2c1c1c3ccccc3[nH]c1c1oc3ccccc3c21 , system: Mitogen-activated protein kinase kinase kinase 9 (Homo sapiens). Its pIC50 is < 6.52

Entry O=C1NC(=O)c2c1c1c(c3c2-c2ccccc2C3)Cc2ccccc2-1 , Mitogen-activated protein kinase kinase kinase 9 (Homo sapiens) data, pIC50 value: < 6.52

The observed pIC50 for O=C1NCc2c1c1c(c3c2-c2ccccc2C3)Cc2ccccc2-1 when tested with Mitogen-activated protein kinase kinase kinase 9 (Homo sapiens) stands at 5.85

Bench note, Mitogen-activated protein kinase kinase kinase 9 (Homo sapiens): O=C1NC(=O)c2c1c1c(c3[nH]c4ccccc4c23)Cc2ccccc2-1 , pIC50 reads < 6.52

The observed pIC50 for O=C1NC(=O)c2c1c1c(c3sc4ccccc4c23)Cc2ccccc2-1 when tested with Mitogen-activated protein kinase kinase kinase 9 (Homo sapiens) stands at < 6.52

The compound O=C1NC(=O)c2c1c1c3ccccc3ccc1c1[nH]c3ccccc3c21 , when measured on Mitogen-activated protein kinase kinase kinase 9 (Homo sapiens), yielded pIC50 of 6.52

* * *

Provide the reported pIC50 of each item.
Biological target: Mitogen-activated protein kinase kinase kinase 11 (Homo sapiens, UniProt Q16584)
Sequence (Q16584 whole entry): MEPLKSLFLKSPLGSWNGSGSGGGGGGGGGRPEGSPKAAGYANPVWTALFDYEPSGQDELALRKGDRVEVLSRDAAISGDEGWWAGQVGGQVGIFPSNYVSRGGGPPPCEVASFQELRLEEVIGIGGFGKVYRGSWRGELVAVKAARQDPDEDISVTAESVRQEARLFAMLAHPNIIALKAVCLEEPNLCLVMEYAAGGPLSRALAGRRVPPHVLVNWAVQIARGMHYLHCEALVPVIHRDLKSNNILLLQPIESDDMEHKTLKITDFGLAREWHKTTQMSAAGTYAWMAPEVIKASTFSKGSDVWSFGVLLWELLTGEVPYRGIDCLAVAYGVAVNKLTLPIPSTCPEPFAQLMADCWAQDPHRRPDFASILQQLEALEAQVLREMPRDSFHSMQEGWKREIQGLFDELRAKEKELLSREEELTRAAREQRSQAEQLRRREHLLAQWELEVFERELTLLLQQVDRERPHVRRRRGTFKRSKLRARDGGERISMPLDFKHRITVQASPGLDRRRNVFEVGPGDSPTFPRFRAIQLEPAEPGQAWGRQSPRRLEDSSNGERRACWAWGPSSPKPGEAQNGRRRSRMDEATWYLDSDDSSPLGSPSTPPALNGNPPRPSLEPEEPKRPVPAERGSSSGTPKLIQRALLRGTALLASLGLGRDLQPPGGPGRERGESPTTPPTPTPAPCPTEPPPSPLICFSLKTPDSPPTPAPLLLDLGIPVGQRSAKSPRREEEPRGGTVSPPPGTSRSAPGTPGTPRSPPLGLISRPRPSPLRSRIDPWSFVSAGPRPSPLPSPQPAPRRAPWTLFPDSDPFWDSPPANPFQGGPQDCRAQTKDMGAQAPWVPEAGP
Experiment: Inhibition of GST-MLK3 expressed in baculovirus
pIC50: −log10 of the molar value.

Just so you know, measured pIC50 for O=C1NCc2c1c1c3ccccc3[nH]c1c1[nH]c3ccccc3c21 [STAUROSPORINONE] came out at 7.31

Data point: O=C1NC(=O)c2c1c1c3ccccc3[nH]c1c1oc3ccccc3c21 ; pIC50 = < 6.52

Entry under test: O=C1NC(=O)c2c1c1c(c3c2-c2ccccc2C3)Cc2ccccc2-1 . Its pIC50 was < 6.52
